This collection of values is drawn from patent US8236756B2.

# targetUnderTest: purified CD26 (Homo sapiens, UniProt P27487)
# Construct: made in house
# Sequence (P27487 whole entry): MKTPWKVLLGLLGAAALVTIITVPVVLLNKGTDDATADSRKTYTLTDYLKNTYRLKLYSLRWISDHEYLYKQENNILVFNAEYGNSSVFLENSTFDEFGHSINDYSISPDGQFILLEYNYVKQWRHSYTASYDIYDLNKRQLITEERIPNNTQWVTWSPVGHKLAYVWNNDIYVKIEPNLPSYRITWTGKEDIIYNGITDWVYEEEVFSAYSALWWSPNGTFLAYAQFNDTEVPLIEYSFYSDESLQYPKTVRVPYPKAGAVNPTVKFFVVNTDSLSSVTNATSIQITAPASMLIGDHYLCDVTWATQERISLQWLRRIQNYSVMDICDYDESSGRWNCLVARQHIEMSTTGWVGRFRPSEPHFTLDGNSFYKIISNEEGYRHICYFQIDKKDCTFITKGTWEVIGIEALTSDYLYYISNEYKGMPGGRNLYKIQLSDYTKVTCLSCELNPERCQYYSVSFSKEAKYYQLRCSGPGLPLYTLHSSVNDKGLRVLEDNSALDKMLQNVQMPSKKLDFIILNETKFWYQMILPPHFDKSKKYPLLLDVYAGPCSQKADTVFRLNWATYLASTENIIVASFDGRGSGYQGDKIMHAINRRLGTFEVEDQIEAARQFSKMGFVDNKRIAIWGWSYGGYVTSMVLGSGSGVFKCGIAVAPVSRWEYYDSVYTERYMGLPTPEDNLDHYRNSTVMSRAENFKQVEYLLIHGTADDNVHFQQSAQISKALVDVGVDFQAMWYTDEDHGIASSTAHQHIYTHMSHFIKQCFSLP
# testDescription: Conversion of peptide prodrugs to parent compound by purified CD26 (HPLC)
# Format: biochemical
# conditionSet: Table 1; purified CD26 1.5 mUnits; 24 h
Can you tell me Conversion % to parent compound by purified CD26, 24 h for the items I'm about to list?
Lab book: enter the figure in %, no units written.

Param item = Cc1cn(C2OC(CO[Si](C)(C)C(C)(C)C)C3(OS(=O)(=O)C=C3N)C2O[Si](C)(C)C(C)(C)C)c(=O)n(CCCNC(=O)[C@@H]2CCCN2C(=O)[C@@H](N)C(C)C)c1=O (stereo partly drawn) [CAM-405, H-Val-Pro-NAP-TSAO] ; retrieve measured Conversion % to parent compound by purified CD26, 24 h.
61

Param item = Cc1cn(C2OC(CO[Si](C)(C)C(C)(C)C)C3(OS(=O)(=O)C=C3N)C2O[Si](C)(C)C(C)(C)C)c(=O)n(CCCNC(=O)[C@@H]2CCCN2C(=O)[C@@H](N)CC(=O)O)c1=O (stereo partly drawn) [CAM-435, H-Asp-Pro-NAP-TSAO] ; retrieve measured Conversion % to parent compound by purified CD26, 24 h.
30

Param item = Cc1cn(C2OC(CO[Si](C)(C)C(C)(C)C)C3(OS(=O)(=O)C=C3N)C2O[Si](C)(C)C(C)(C)C)c(=O)n(CCCNC(=O)C(Cc2ccccc2)NC(=O)C(N)C(C)C)c1=O (stereo not drawn) [CAM-428, H-Val-Phe-NAP-TSAO] ; retrieve measured Conversion % to parent compound by purified CD26, 24 h.
0

Param item = Cc1cn(C2OC(CO[Si](C)(C)C(C)(C)C)C3(OS(=O)(=O)C=C3N)C2O[Si](C)(C)C(C)(C)C)c(=O)n(CCCNC(=O)[C@H](C)NC(=O)[C@@H](N)C(C)C)c1=O (stereo partly drawn) [CAM-424, H-Val-Ala-NAP-TSAO] ; retrieve measured Conversion % to parent compound by purified CD26, 24 h.
35

Param item = Cc1cn(C2OC(CO[Si](C)(C)C(C)(C)C)C3(OS(=O)(=O)C=C3N)C2O[Si](C)(C)C(C)(C)C)c(=O)n(CCCNC(=O)[C@@H]2CC(O)CN2C(=O)[C@@H](N)C(C)C)c1=O (stereo partly drawn) [CAM-163, H-Val-4HyPro-NAP-TSAO] ; retrieve measured Conversion % to parent compound by purified CD26, 24 h.
53

---

# targetUnderTest: purified CD26 (Homo sapiens)
# Construct: made in house
# testDescription: Conversion of peptide prodrugs to parent compound by purified CD26 (HPLC)
# Assay type: biochemical
# conditionSet: Table 1; purified CD26 1.5 mUnits; 4 h
Can you tell me Conversion % to parent compound by purified CD26, 4 h for the items I'm about to list?
Lab book: enter the figure in %, no units written.

Param item = Cc1cn(C2OC(CO[Si](C)(C)C(C)(C)C)C3(OS(=O)(=O)C=C3N)C2O[Si](C)(C)C(C)(C)C)c(=O)n(CCCNC(=O)[C@@H]2CC(O)CN2C(=O)[C@@H](N)C(C)C)c1=O (stereo partly shown) [CAM-163, H-Val-4HyPro-NAP-TSAO] ; retrieve measured Conversion % to parent compound by purified CD26, 4 h.
18

Param item = Cc1cn(C2OC(CO[Si](C)(C)C(C)(C)C)C3(OS(=O)(=O)C=C3N)C2O[Si](C)(C)C(C)(C)C)c(=O)n(CCCNC(=O)C(Cc2ccccc2)NC(=O)C(N)C(C)C)c1=O (stereo not drawn) [CAM-428, H-Val-Phe-NAP-TSAO] ; retrieve measured Conversion % to parent compound by purified CD26, 4 h.
0

Param item = CNC(C(=O)N1CCCC1C(=O)NC(C(=O)NCCCn1c(=O)c(C)cn(C2OC(CO[Si](C)(C)C(C)(C)C)C3(OS(=O)(=O)C=C3N)C2O[Si](C)(C)C(C)(C)C)c1=O)C(C)C)C(C)C (stereo not drawn) [CAM-407, Me-NH-Val-Pro-Val-NHP-TSAO] ; retrieve measured Conversion % to parent compound by purified CD26, 4 h.
0

Param item = Cc1cn(C2OC(CO[Si](C)(C)C(C)(C)C)C3(OS(=O)(=O)C=C3N)C2O[Si](C)(C)C(C)(C)C)c(=O)n(CCCNC(=O)CNC(=O)[C@@H](N)C(C)C)c1=O (stereo partly drawn) [CAM-422, H-Val-Gly-NAP-TSAO] ; retrieve measured Conversion % to parent compound by purified CD26, 4 h.
0
